Test system: intestinal absorbtion of CHOLESTEROL
Assay: Intestinal absorption of cholesterol: appearance of 4-14C-cholesterol in thoracic duct lymph
Format: in vivo, female albino rats (Charles River)
Details: 9-24 hours after emulsion; 100 mg orally; vs Na-TC control; 14C-cholesterol in lymph
METRIC: % decrease of cholesterol, 9-24 hours (%)
One number for each entry, in %.

COMPOUND	TEST_SYSTEM	% decrease of cholesterol, 9-24 hours / %
C[C@]12CC[C@@H](O)C[C@H]1CC[C@@H]1[C@@H]2C[C@H](O)[C@]2(C)[C@@H](C(=O)O)CC[C@@H]12 [Compound A]	intestinal absorbtion of CHOLESTEROL	79
C[C@H](CCO)[C@H]1CC[C@H]2[C@@H]3CC[C@@H]4C[C@H](O)CC[C@]4(C)[C@H]3C[C@H](O)[C@]12C [Compound D, 3α, 12α, 23-trihydroxy-5β-24-norcholane]	intestinal absorbtion of CHOLESTEROL	44
C[C@H](C(=O)O)[C@H]1CC[C@H]2[C@@H]3CC[C@@H]4C[C@H](O)CC[C@]4(C)[C@H]3C[C@H](O)[C@]12C [Compound B]	intestinal absorbtion of CHOLESTEROL	0

Let us move to another entry and its % decrease of cholesterol, 9-24 hours.
Incoming: Find the measured % decrease of cholesterol, 9-24 hours of C[C@H](CC(=O)O)[C@H]1CC[C@H]2[C@@H]3CC[C@@H]4C[C@H](O)CC[C@]4(C)[C@H]3C[C@H](O)[C@]12C [Compound C, 3α, 12α-dihydroxy-5-β-norcholanic acid] with intestinal absorbtion of CHOLESTEROL as test system.
Outgoing: 53
